- Assay: In vitro gut permeation study
- Type: in vitro ADME
- Condition summary: Wistar; rat gut, mucosal to serosal, after 8 h
Measured property: Papp at 8 h
Quote the value and follow it with the unit of measurement.

Inquiry: Using the record for COc1cc(/C=C/C(=O)CC(=O)/C=C/c2ccc(O)c(OC)c2)ccc1O , report its Papp at 8 h.
Reply text: 4.88 ×10⁻⁶ cm/s
